Test: clinical
Settings: human, whole blood, iv, […]2
assay readout: Tmax

C[C@@]12OC(=O)[C@]1([C@@H](O)[C@@H]1C=CCCC1)NC(=O)[C@@H]2CCCl 15.5 min

###

Assay: clinical
Settings: human, whole blood, iv, 0.7 mg/m2

molecule	result unit	Vd
C[C@@]12OC(=O)[C@]1([C@@H](O)[C@@H]1C=CCCC1)NC(=O)[C@@H]2CCCl [marizomib]	L	48.3

###

Test: clinical
Conditions: human, whole blood, iv, […]2
assay readout: Vd (L)

C[C@@]12OC(=O)[C@]1([C@@H](O)[C@@H]1C=CCCC1)NC(=O)[C@@H]2CCCl 54.4
